tested on: LoVo; experiment: Antiproliferative activity against doxorubicin-resistant human LoVo cells after 72 hrs by MTT assay; assay type: functional, cell-based
endpoint-name: IC50 (nM)
Unit nM implied. Number only.

Q: Tell me measured IC50 for "COc1cc(C(=O)c2sc(N3CCCC3)nc2N)cc(OC)c1OC" please.
A: 430

====

system: HeLa; assay: Antiproliferative activity against human HeLa cells after 2 days by coulter counter analysis; type: functional, cell-based; conditions: 48 h
pIC50: −log10 of the molar value.
Cut-off 5 on pIC50, inclusive. At or above means Fulfilled; below means Not fulfilled.

Example cases with answers are listed next.
INSERT INTO measurements (molecule, label_class) VALUES
  ('COc1ccc(/C=C\c2cc(OC)c(OC)c(OC)c2)cc1O [COMBRETASTATIN A4]', 'Fulfilled'),
  ('COc1cccc(C(=O)c2sc(N3CCCC3)nc2N)c1', 'Not fulfilled'),
  ('COc1ccc(C(=O)c2sc(N3CCCC3)nc2N)cc1OC', 'Not fulfilled');

Q: Kindly determine if pIC50 recorded for "CCN(CC)c1nc(N)c(C(=O)c2cc(OC)c(OC)c(OC)c2)s1" is above or exactly 5.
A: Not fulfilled

Q: Kindly determine if pIC50 recorded for "COc1ccccc1C(=O)c1sc(N2CCCC2)nc1N" is above or exactly 5.
A: Not fulfilled

Q: Kindly determine if pIC50 recorded for "COc1cc(C(=O)c2sc(N)nc2N)cc(OC)c1OC" is above or exactly 5.
A: Not fulfilled

Q: Kindly determine if pIC50 recorded for "COc1cc(C(=O)c2sc(N3CCCC3)nc2N)cc(OC)c1OC" is above or exactly 5.
A: Fulfilled

Q: Kindly determine if pIC50 recorded for "Nc1nc(N2CCCC2)sc1C(=O)c1ccccc1" is above or exactly 5.
A: Not fulfilled

Q: Kindly determine if pIC50 recorded for "COc1ccc(C(=O)c2sc(N3CCCC3)nc2N)cc1" is above or exactly 5.
A: Not fulfilled

Q: Kindly determine if pIC50 recorded for "Nc1nc(N2CCCC2)sc1C(=O)c1ccc(Cl)cc1" is above or exactly 5.
A: Not fulfilled

Q: Kindly determine if pIC50 recorded for "CCCCN(C)c1nc(N)c(C(=O)c2cc(OC)c(OC)c(OC)c2)s1" is above or exactly 5.
A: Not fulfilled

Q: Kindly determine if pIC50 recorded for "Nc1nc(N2CCCC2)sc1C(=O)c1ccc(Br)cc1" is above or exactly 5.
A: Not fulfilled

Q: Kindly determine if pIC50 recorded for "COc1cc(C(=O)c2sc(N(C)Cc3ccccc3)nc2N)cc(OC)c1OC" is above or exactly 5.
A: Not fulfilled

====

Below, each of the compounds is paired with its reported IC50 value.
test system: HeLa; experiment: Antiproliferative activity against human HeLa cells after 2 days by coulter counter analysis; type: functional, cell-based; details: 48 h
Unit µM implied. Number only.

Here is how some compounds turned out for IC50.
INSERT INTO measurements (item_smiles, assay_target, data_value) VALUES
  ('COc1cc(C(=O)c2sc(N3CCCCC3)nc2N)cc(OC)c1OC', 'HeLa', 11),
  ('COc1cc(C(=O)c2sc(N3CCOCC3)nc2N)cc(OC)c1OC', 'HeLa', 8.8);

Read the next record carefully.
Q: Tell me measured IC50 for "COc1cc(C(=O)c2sc(N(C)C)nc2N)cc(OC)c1OC" please.
A: 8.2
